# EXPERIMENT NOTES: Ratio of Cmax in brain to plasma in BALB/c mouse at 10 mg/kg, po measured for 4 hrs by MS-HPLC analysis
# Assay type: ADME, organism-based
# ASSAY SETUP: brain and plasma
REPORTED PROPERTY: Kp at 4 h

COMPOUND STRUCTURE STRING | REPORTED
C=C(C)[C@@H]1CCC(C)=C[C@H]1c1c(O)cc([C@H](C)n2nccn2)cc1O | 3

###

# EXPERIMENT NOTES: Half life in BALB/c mouse plasma at 10 mg/kg, po measured for 4 hrs by MS-HPLC analysis
# Format: ADME, organism-based
REPORTED PROPERTY: half-life (min)

COMPOUND STRUCTURE STRING | REPORTED PROPERTY | REPORTED
C=C(C)[C@@H]1CCC(C)=C[C@H]1c1c(O)cc([C@H](C)n2nccn2)cc1O | half-life | 42

###

# SUBJECT OF TEST: UniProt:P21554
# Sequence (P21554 whole entry): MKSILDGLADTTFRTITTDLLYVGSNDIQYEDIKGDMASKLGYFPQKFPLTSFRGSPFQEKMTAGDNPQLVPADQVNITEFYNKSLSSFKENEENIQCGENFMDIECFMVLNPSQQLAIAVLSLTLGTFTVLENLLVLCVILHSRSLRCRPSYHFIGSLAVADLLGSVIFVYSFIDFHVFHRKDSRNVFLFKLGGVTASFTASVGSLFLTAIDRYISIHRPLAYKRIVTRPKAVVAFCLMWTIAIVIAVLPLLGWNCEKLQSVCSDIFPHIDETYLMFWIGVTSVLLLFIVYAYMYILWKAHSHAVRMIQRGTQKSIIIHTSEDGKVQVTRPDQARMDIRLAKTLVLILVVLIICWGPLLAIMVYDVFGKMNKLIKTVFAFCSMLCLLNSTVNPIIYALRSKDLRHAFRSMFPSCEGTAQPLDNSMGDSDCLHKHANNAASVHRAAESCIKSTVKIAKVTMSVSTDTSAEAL

COMPOUND STRUCTURE STRING | Ki
CCCCCCC(C)(C)c1cc(O)c2c(c1)OC(C)(C)c1ccc(C)c(CO)c1-2 | 0.066 nM

###

# EXPERIMENT NOTES: Ratio of AUC in brain to plasma in BALB/c mouse at 10 mg/kg, po measured for 4 hrs by MS-HPLC analysis
# Format: ADME, organism-based
# ASSAY SETUP: brain and plasma

COMPOUND STRUCTURE STRING | Kp at 4 h
C=C(C)[C@@H]1CCC(C)=C[C@H]1c1c(O)cc([C@H](C)n2nccn2)cc1O | > 2

###

# EXPERIMENT NOTES: Mean residence time in BALB/c mouse brain at 10 mg/kg, po measured for 4 hrs by MS-HPLC analysis
# Type: ADME, organism-based
REPORTED PROPERTY: MRT

COMPOUND STRUCTURE STRING | REPORTED
C=C(C)[C@@H]1CCC(C)=C[C@H]1c1c(O)cc([C@H](C)n2nccn2)cc1O | 1.7 h
